assay: In vivo pharmacokinetic experiment in CD-1 mice; conditions: mouse, plasma; CD-1 female mice, oral administration (10 mg/kg)
quantity: Tmax
Note to self: number, then unit, no commentary.

| molecule | Tmax |
| --- | --- |
| COc1cc(C(=O)NC2CCN(C)CC2)c(F)cc1Nc1ncc(Cl)c(Oc2cccc3c2C(=O)N(C)C32CC2)n1 [Compound 117] | 2 h |
| COc1cc(N2CC3(CCN(C)CC3)C2)ccc1Nc1ncc(Br)c(Oc2cccc3c2C(=O)N(C)C32CC2)n1 [Compound 177] | 2 h |
| COc1cc(C(=O)NC2CCN(C)CC2)c(F)cc1Nc1ncc(C(F)(F)F)c(Oc2cccc3c2C(=O)N(C)C32CC2)n1 [Compound 4] | 4 h |
| COc1cc(N2CC3(CCN(C)CC3)C2)c(F)cc1Nc1ncc(C(F)(F)F)c(Oc2cccc3c2C(=O)N(C)C32CC2)n1 [Compound 120] | 4 h |
| COc1cc(C(=O)NC2CCN(C)CC2)ccc1Nc1ncc(C(F)(F)F)c(Oc2cccc3c2C(=O)N(C)C32CC2)n1 [Compound 3] | 4 h |
| COc1cc(N2CCN(C)CC2)ccc1Nc1ncc(C(F)(F)F)c(Oc2cccc3c2C(=O)N(C)C32CC2)n1 [Compound 73] | 0.5 h |

Return reported Tmax. Input molecule: COc1cc(N2CC3(CCN(C)CC3)C2)ccc1Nc1ncc(Cl)c(Oc2cccc3c2C(=O)N(C)C32CC2)n1 [Compound 136]
2 h

Return reported Tmax. Input molecule: COc1cc(N2CC3(CCN(C)CC3)C2)c(F)cc1Nc1ncc(Cl)c(Oc2cccc3c2C(=O)N(C)C32CC2)n1 [Compound 137]
4 h
